- study system: T1, CGH-1_(248–420) K277A (C. elegans, UniProt Q95YF3 248-420, K277A)
- T1 construct: Mutant of m1 made with the MutanBEST kit; source: E. coli Gold (DE3), purified (Ni-chelating resin, SEC Superdex 75)
- T1 sequence (looked up): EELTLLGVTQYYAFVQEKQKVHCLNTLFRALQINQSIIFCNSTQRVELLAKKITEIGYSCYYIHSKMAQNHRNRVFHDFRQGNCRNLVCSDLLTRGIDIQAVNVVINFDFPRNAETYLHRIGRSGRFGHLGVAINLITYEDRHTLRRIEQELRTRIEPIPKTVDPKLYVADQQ
- test method notes: ITC; ligand (peptide or CAR-1 fragment, 0.5 mM) injected into CGH-1_(248-420) or mutant (0.05 mM) in the cell; 20 °C; Buffer B (20 mM Tris-HCl pH 7.5, 150 mM NaCl); one-binding-site model
- study conditions: both partners purified
endpoint label: pKd
Scale: pKd equals -log10([C]), with [C] in mol/L.

Request: Recall and state the measured pKd for SDEDHNIFDDEFDAANDETFGGGLDNIGENAELENYAT (PATR-1 (Pat1 ortholog), C. elegans, residues 30-67; Printed with free NH2 and COOH ends; also called PATR1_30-67^WT; CePATR-1 peptide; source: synthetic peptide (GL Biochem, Shanghai)) [PATR-1 peptide (CePATR-1_(30–67))] .
Response: 5.35
